Would you kindly list MIC for each of these compounds?
- Test system: Methicillin Resistant Staphylococcus aureus strain USA 300, NRS384
- Test summary: Minimum inhibitory concentration, broth micro-dilution (CLSI), S. aureus
- Format: cell-based
- Experimental parameters: Staphylococcus aureus, MRSA / NRS 384 / USA300, 22 h, MRSA USA 300 NRS384; 35° C., 22 hours; read-out: MIC (μg/mL) S. aureus
Numeric answer only, unit µg/mL assumed.

stdin: So what does the record say about MIC for CCCCCCCCCCNCCC(=O)N[C@@H](CO)C(=O)N(C)[C@@H]1C(=O)N[C@@H](C)C(=O)N[C@H](C(=O)NCC#N)Cc2ccc(O)c(c2)-c2cc1ccc2O ?
stdout: 4

stdin: Request the reported MIC associated with CCCCCCCCCCCNC(=O)N[C@@H](CCN)C(=O)N(C)[C@@H]1C(=O)N[C@@H](C)C(=O)N[C@H](C(=O)NCC#N)Cc2ccc(OCCN)c(c2)-c2cc1ccc2OCCN
stdout: 0.029

stdin: Returns the measured MIC for the input compound. Input: CCCCc1ccc(-c2ccc(C(=O)N[C@@H](CCCCN)C(=O)N(C)[C@@H]3C(=O)N[C@@H](C)C(=O)N[C@H](C(=O)N[C@H](C)C#N)Cc4ccc(OCCN)c(c4)-c4cc3ccc4OCCN)cc2)cc1
stdout: 2

stdin: Look at this compound and give its reported MIC. CCCCCCCCc1ccc(C(=O)N[C@@H](CCN)C(=O)N(C)[C@@H]2C(=O)N[C@@H](C)C(=O)N[C@H](C(=O)NCC#N)Cc3ccc(OCCN)c(c3)-c3cc2ccc3OCCN)c(F)c1
stdout: 0.094

stdin: Look up MIC: Cc1nc(-c2ccc(C(F)(F)F)cc2)ncc1C(=O)N[C@@H](CCN)C(=O)N(C)[C@@H]1C(=O)N[C@@H](C)C(=O)N[C@H](C(=O)NCC#N)Cc2ccc(OCCN)c(c2)-c2cc1ccc2OCCN
stdout: 0.094
